Just for reference, patent US10039759B2 is where these values come from.

system.under.test: Ba/F3-FGFR4-transfected cells (Homo sapiens, UniProt P22455)
Sequence (P22455 whole entry, change not shown): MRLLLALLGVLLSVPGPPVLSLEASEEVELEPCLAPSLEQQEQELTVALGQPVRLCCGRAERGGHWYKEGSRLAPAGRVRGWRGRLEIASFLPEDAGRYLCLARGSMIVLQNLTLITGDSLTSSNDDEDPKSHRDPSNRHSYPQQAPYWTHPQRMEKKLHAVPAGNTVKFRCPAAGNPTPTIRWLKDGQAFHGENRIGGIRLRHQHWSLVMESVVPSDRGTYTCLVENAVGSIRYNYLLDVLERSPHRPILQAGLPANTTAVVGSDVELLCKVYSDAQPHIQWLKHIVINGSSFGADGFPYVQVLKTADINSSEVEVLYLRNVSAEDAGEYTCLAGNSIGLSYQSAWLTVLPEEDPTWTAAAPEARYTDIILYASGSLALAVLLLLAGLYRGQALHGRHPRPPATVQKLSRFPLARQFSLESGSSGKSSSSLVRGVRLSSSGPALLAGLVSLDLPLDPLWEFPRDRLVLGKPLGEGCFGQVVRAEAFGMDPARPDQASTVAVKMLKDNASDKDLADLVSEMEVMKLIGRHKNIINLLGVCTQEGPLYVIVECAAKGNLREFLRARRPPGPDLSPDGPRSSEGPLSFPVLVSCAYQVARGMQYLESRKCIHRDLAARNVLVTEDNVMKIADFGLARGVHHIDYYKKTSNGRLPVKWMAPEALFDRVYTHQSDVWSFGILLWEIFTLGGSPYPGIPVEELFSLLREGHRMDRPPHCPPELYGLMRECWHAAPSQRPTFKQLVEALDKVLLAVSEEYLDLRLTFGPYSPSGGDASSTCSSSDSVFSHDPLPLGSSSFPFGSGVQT
run.description: Ba/F3-FGFR4 cellular proliferation assay, Alamar Blue
Type: cell-based
experimental.context: 24 hours
reported.metric: BAF3-FGFR 4 (pIC50)

COc1cc(OC)cc(N(CC#Cc2ncccc2OC)c2ccc3ncc(-c4cnn(C)c4)cc3c2)c1 :: 6.98
COc1cc(OC)cc(N(CC(O)C(F)(F)F)c2ccc3ncc(-c4cnn(C)c4)cc3c2)c1 (single isomer, unassigned) [Compound 24] :: 6.6
COc1cc(OC)c(F)c(N(CCNC(C)C)c2ccc3ncc(-c4cnn(C)c4)cc3c2)c1 :: 7.83
COc1cc(OC)cc(N(CC#Cc2nccc(OC)n2)c2ccc3ncc(-c4cnn(C)c4)cc3c2)c1 :: 8.21
COc1cc(OC)cc(N(CCCN2CCCC2CNS(=O)(=O)C(F)(F)F)c2ccc3ncc(-c4cnn(C)c4)cc3c2)c1 (centres unmarked) :: 7.44
COc1cc(OC)cc(N(Cc2nccn2S(=O)(=O)N(C)C)c2ccc3ncc(-c4cnn(C)c4)cc3c2)c1 :: 5.18
C#CCN(c1cc(OC)cc(OC)c1)c1ccc2ncc(-c3cnn(C)c3)cc2c1 :: 5.4
COc1cc(OC)cc(N(CCNC(C)C)c2ccc3ncc(-c4cnn(C)c4)cc3c2)c1 :: 7.19
COc1cc(OC)cc(N(CCCN2CCCO2)c2ccc3ncc(-c4cnn(C)c4)cc3c2)c1 :: 5.71
COc1cc(OC)cc(N(Cc2ncccn2)c2ccc3ncc(-c4cnn(C)c4)cc3c2)c1 :: 5.64
COc1cc(OC)cc(N(CCNC(C)C)c2ccc3ncc(-c4cnn(CCO)c4)cc3c2)c1 :: 6.81
COc1cc(OC)cc(N(CCO)c2ccc3ncc(-c4ccn(C)c4)cc3c2)c1 :: 5.66
COc1cc(OC)cc(N(CCO)c2ccc3ncc(-c4cnn(C)c4)cc3c2)c1 :: 6.11
COc1cc(OC)c(F)c(N(CCNC(C)C)c2ccc3ncc(-c4cnn(C)c4)cc3c2)c1F :: 8.25
COc1cc(OC)cc(/C(=C\C#N)c2ccc3ncc(-c4cnn(C)c4)cc3c2)c1 :: 5.25
COc1cc(OC)c(F)c(N(CC#Cc2ncccc2OC)c2ccc3ncc(-c4cnn(C)c4)cc3c2)c1 :: 7.77
COc1cc(OC)cc(N(Cc2ncc[nH]2)c2ccc3ncc(C4=CCNCC4)cc3c2)c1 :: 5.28
COc1cc(OC)cc(N(Cc2ncc[nH]2)c2ccc3ncc(N4CCOCC4)cc3c2)c1 :: 5.37
COc1cc(OC)cc(N(CC(O)C(F)(F)F)c2ccc3ncc(-c4cnn(C)c4)cc3c2)c1 (single isomer, unassigned) [Compound 25] :: 6.07
COc1cc(OC)cc(N(CCCN)c2ccc3ncc(-c4cnn(C)c4)cc3c2)c1 :: 6.39
COc1cc(OC)cc(N(CC2CCC(=O)N2)c2ccc3ncc(-c4cnn(C)c4)cc3c2)c1 (centres unmarked) :: 6.00
